List of Bliss excess values.
Test system: SK-N-DZ (Neuroblastoma)
protocol-text: Bliss excess, mean over the matrix (fraction); higher = more synergy;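 further: after 72 h of two-drug dosing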
// keep it numeric: no unit symbol after the value

Previously resolved entries follow.
molecule | Bliss excess
CC1(C)CCC(CN2CCN(c3ccc(C(=O)NS(=O)(=O)c4ccc(NCC5CCOCC5)c([N+](=O)[O-])c4)c(Oc4cnc5[nH]ccc5c4)c3)CC2)=C(c2ccc(Cl)cc2)C1 [Venetoclax] + C[C@@H](Nc1cc(F)cc(F)c1)c1cc(C(=O)N(C)C)cc2c(=O)cc(N3CCOCC3)oc12 [AZD8186] (first compound max 1 µM, 7x7, partner max 3 µM) | 0.0144
COc1cccc(OCCCN)c1-c1cc(Nc2cnc(C#N)cn2)n[nH]1 [Prexasertib] + Cc1cc2ncnn2cc1Nc1ncc2c(n1)n(C1CCOCC1)c(=O)n2C [AZD7648] (first compound max 1 µM, 7x7, partner max 10 µM) | -0.0049
CC(=O)c1c(C)c2cnc(Nc3ccc(N4CCNCC4)cn3)nc2n(C2CCCC2)c1=O [Palbociclib] + CC1(C)CCC(CN2CCN(c3ccc(C(=O)NS(=O)(=O)c4ccc(NCC5CCOCC5)c([N+](=O)[O-])c4)c(Oc4cnc5[nH]ccc5c4)c3)CC2)=C(c2ccc(Cl)cc2)C1 [Venetoclax] (first compound max 10 µM, 7x7, partner max 1 µM) | 0.0824
CC(=O)c1c(C)c2cnc(Nc3ccc(N4CCNCC4)cn3)nc2n(C2CCCC2)c1=O [Palbociclib] + Cc1c2c(nn1C)CSCc1cc(n(C)n1)CSc1cc(c3ccccc3c1)OCCCc1c(C(=O)O)n(C)c3c-2c(Cl)ccc13 [AZD5991] (first compound max 10 µM, 7x7, partner max 1 µM) | 0.0655
COc1cccc(OCCCN)c1-c1cc(Nc2cnc(C#N)cn2)n[nH]1 [Prexasertib] + C=CCn1c(=O)c2cnc(Nc3ccc(N4CCN(C)CC4)cc3)nc2n1-c1cccc(C(C)(C)O)n1 [AZD1775] (first compound max 1 µM, partner max 1 µM) | 0.0202

Looking for the measured Bliss excess of Cc1cc2ncnn2cc1Nc1ncc2c(n1)n(C1CCOCC1)c(=O)n2C [AZD7648] + C[C@@H]1COCCN1C2=NC(=NC(=C2)C3(CC3)[S@](=N)(=O)C)C4=C5C=CNC5=NC=C4 [AZD6738] (first compound max 10 µM, 7x7, partner max 10 µM) , can you help?
-0.018

Looking for the measured Bliss excess of COc1cccc(OCCCN)c1-c1cc(Nc2cnc(C#N)cn2)n[nH]1 [Prexasertib] + O=C(c1cc(Cc2n[nH]c(=O)c3ccccc23)ccc1F)N1CCN(C(=O)C2CC2)CC1 [Olaparib] (first compound max 1 µM, 7x7, partner max 10 µM) , can you help?
-0.0511

====

System: OCI-M1 (Acute Myeloid Leukemia)
protocol-text: Bliss excess, mean over the matrix (fraction); higher = more synergy
List of Bliss excess values.
// keep it numeric: no unit symbol after the value

molecule | target-system | readout-number
CN(CCO)CC[C@H](CSc1ccccc1)Nc1ccc(S(=O)(=O)NC(=O)c2ccc(N3CCC([C@@H](O)c4ccccc4-c4ccc(Cl)cc4)CC3)cc2)cc1S(=O)(=O)C(F)(F)F [AZD4320] + Cn1cnc2c(F)c(Nc3ccc(Br)cc3Cl)c(C(=O)NOCCO)cc21 [Selumetinib] (first compound max 1 µM, 7x7, partner max 3 µM) | OCI-M1 (Acute Myeloid Leukemia) | 0.0503

Now for another entry.
Form field: Bliss excess recorded for COc1cccc(OCCCN)c1-c1cc(Nc2cnc(C#N)cn2)n[nH]1 [Prexasertib] + O=C(c1cc(Cc2n[nH]c(=O)c3ccccc23)ccc1F)N1CCN(C(=O)C2CC2)CC1 [Olaparib] (first compound max 1 µM, 7x7, partner max 10 µM) with OCI-M1 (Acute Myeloid Leukemia) (enter value)
-0.0322
